- Tested on: Bacillus anthracis
- method.description: microbe, parasite or virus in culture
- setup.conditions: Sterne
Items are presented alongside their recorded MIC.
measurement.label: MIC

{"columns": ["smiles.str", "measured.result"],
 "data": [
  ["CCCn1nc(NC(=O)NC23CC4CC(CC(C4)C2)C3)cc1C", "> 200 µg/mL"],
  ["O=C(Nc1nnc(C2CCC2)o1)NC12CC3CC(CC(C3)C1)C2", "25 µg/mL"],
  ["Cc1cc(NC(=O)NC23CC4CC(CC(C4)C2)C3)no1", "> 200 µg/mL"],
  ["CCn1ccc(NC(=O)NC23CC4CC(CC(C4)C2)C3)n1", "100 µg/mL"],
  ["CC(C)c1nnc(NC(=O)NC23CC4CC(CC(C4)C2)C3)o1", "> 200 µg/mL"],
  ["Cc1cnc(NC(=O)NC23CC4CC(CC(C4)C2)C3)s1", "> 200 µg/mL"]
]}
